Values were extracted from patent US20040229241A1.

tested on: PAOh1/SMO; assay: PAOh1/SMO activity in lysates of NCI A549 cells after analogue treatment; format: cell-based, human; conditions: NCI A549, 24 h exposure to 10 μM of each analogue
measure: induction of PAOh1/SMO activity

compound | induction of PAOh1/SMO activity
CCNCCCNCCCNCCCNCC1CC1 [CPENSpm] | significant induction
CCNCCCCNCCCCNCCCCNCCCCNC/C=C\CNCCCCNCCCCNCCCCNCCCCNCC [SL-11150] | did not induce
CCNCCCNCCCNCCCNC[C@@H](C)CC [IPENSpm] | significant induction
CCNCCCNCCCNCCCNCC [BENSpm, N^1,N^11-bis(ethyl)norspermine] | significant induction
CCNCCCCNCCCCNCCCCNCCCCNC/C=C/CNCCCCNCCCCNCCCCNCCCCNCC [SL-11144] | did not induce

Consider now this further compound.
q: Field request: induction of PAOh1/SMO activity | item: CCNCCCNCCCNCCCNCC1CCCCCC1 [CHENSpm]
a: significant induction

* * *

molecular target: purified recombinant human PAOh1/SMO (Homo sapiens, UniProt Q9NWM0); construct: A 1702 bp fragment of the PAOh1cDNA was produced by PCR; His tag (pET15b) (N); test: Oxidase activity of purified recombinant PAOh1/SMO, luminol chemiluminescence
Sequence (Q9NWM0 whole entry, the tested form may be a part): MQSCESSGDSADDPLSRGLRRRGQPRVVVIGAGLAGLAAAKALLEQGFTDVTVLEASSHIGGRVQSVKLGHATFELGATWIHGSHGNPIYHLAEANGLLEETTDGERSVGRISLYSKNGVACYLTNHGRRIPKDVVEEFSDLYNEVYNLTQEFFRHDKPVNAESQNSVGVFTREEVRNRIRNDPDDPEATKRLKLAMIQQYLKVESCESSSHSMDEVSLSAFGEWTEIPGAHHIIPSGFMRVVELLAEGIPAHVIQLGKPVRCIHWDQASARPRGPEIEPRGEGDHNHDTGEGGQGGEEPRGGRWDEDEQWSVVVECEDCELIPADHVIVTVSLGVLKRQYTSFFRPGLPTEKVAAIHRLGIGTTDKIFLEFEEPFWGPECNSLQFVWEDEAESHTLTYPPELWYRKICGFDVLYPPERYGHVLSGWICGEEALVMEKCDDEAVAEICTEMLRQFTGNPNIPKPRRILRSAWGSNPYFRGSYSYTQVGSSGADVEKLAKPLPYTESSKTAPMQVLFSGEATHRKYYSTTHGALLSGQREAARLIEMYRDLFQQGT
pIC50: −log10 of the molar value.
measure: pIC50

q: Which value of pIC50 has been reported for C=C=CCNCCCCNCC=C=C [MDL 72,527] in the records?
a: ~5.00
